Listing of entries alongside the reported binding signal.
target: d-enCas12a-Ultra (Acidaminococcus sp., UniProt U2UMQ6 1-1307, E174R;S542R;K548R;M537R;F870L;D908A;E993A;D1235A); assay: Spec-seq (native PAGE EMSA with sequencing of bound and unbound); 25 mM Tris-HCl pH 7.4, 150 mM KCl, 5 mM MgCl2, 10% glycerol, 1 mM DTT, 40 ng/uL salmon sperm DNA; 400 nM Cas12a, 480 nM crRNA, 50 nM library, 37 C 1 h; native PAGE at room temperature; high values mean tight binding; settings: protein: recombinant;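 also: relative affinity from the bound to unbound sequence frequency ratio in Spec-seq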

binder	binding signal
ATCT (dsDNA) DNA 1: GCTATCTAGTGCTCAGTACGCACTGATCTAGGAAACTTCTGGCAGGACCAGGTCATGAGATCGGAAGAGCACACGTCTGAACTCCAGTCA DNA 2: TGACTGGAGTTCAGACGTGTGCTCTTCCGATCTCATGACCTGGTCCTGCCAGAAGTTTCCTAGATCAGTGCGTACTGAGCACTAGATAGC RNA: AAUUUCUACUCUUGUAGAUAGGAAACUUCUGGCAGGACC	-0.664 lnKA
CAAT (dsDNA) DNA 1: GCTATCTAGTGCTCAGTACGCACTGCAATAGGAAACTTCTGGCAGGACCAGGTCATGAGATCGGAAGAGCACACGTCTGAACTCCAGTCA DNA 2: TGACTGGAGTTCAGACGTGTGCTCTTCCGATCTCATGACCTGGTCCTGCCAGAAGTTTCCTATTGCAGTGCGTACTGAGCACTAGATAGC RNA: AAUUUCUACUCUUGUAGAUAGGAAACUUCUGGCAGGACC	-3.43 lnKA
